For each record, write down the corresponding Kd.
target: monomeric streptavidin variant mSA2; assay: apparent Kd (Kd,app); fluorescent binding curve, labeled mSA2 in PBS, 4 h exposure; quadratic fit
// note: answer is a bare numeric in µM

Summary for this binder, rcSso7d.SA monolayer (designed binder, EDC/NHS-activated protein coupled to an amine-functionalized silicon wafer, also called monomeric rcSso7d.SA; surface-immobilized rcSso7d.SA) MGSIHHHHHHSSGLVPRGSHMCATVKFTYQGEEKQVDISKIKIVARDGQYIDFKYDEGGGAYGYGWVSEKDAPKELLQMLEKQ : Kd is 3

// 3xSP56.1k thin film (3x rcSso7d.SA-PNIPAM conjugate, PNIPAM Mn 56.1 kDa) (designed binder, maleimide end-functionalized PNIPAM (Mn 56.1 kDa) on the N-terminal Cys; film lightly crosslinked with glutaraldehyde) MGSSHHHHHHSSGLVPRGSHMCATVKFTYQGEEKQVDISKIKIVARDGQYIDFKYDEGGGAYGYGWVSEKDAPKELLQMLEKQGGGGSGGGGSMATVKFTYQGEEKQVDISKIKIVARDGQYIDFKYDEGGGAYGYGWVSEKDAPKELLQMLEKQGGGGSGGGGSMATVKFTYQGEEKQVDISKIKIVARDGQYIDFKYDEGGGAYGYGWVSEKDAPKELLQMLEKQGG : Kd value = 16

// sample 3xSP9.6k thin film (3x rcSso7d.SA-PNIPAM conjugate, PNIPAM Mn 9.6 kDa) (designed binder, maleimide end-functionalized PNIPAM (Mn 9.6 kDa) on the N-terminal Cys; film lightly crosslinked with glutaraldehyde) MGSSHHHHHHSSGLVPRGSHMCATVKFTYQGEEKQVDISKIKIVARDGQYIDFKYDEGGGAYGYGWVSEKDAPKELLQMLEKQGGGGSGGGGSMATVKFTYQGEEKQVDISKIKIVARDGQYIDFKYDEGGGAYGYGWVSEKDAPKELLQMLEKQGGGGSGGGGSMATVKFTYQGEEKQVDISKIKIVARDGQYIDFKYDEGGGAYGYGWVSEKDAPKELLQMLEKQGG , its Kd was 3.7
